Target: T1, VEGF3a/1 six-finger ZFP (synthetic)
T1 chain: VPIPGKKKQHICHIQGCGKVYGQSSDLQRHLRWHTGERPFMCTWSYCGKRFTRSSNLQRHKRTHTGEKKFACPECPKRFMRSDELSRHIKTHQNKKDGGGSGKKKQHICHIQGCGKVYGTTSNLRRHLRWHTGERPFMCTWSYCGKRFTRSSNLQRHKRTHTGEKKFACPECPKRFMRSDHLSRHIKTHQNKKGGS
Assay: EMSA; apparent Kd, room temperature, 25 uM ZnCl2, poly dI-dC
Settings: tags: N-terminal MBP fusion; label: 5'-32P
pKd: −log10 of the molar value.
quantity.kind: pKd

// lookup pKd for JVF9/JVF10 VEGF 18-bp target (dsDNA) DNA 1: AGCGAGCGGGGAGGATCGCGGAGGCTTGGGGCAGCCGGGTAG DNA 2: CGCTCTACCCGGCTGCCCCAAGCCTCCGCGATCCTCCCCGCT ~8.82
